Just for reference, ChEMBL document CHEMBL3621157 is where these values come from.

Tested on: Escherichia coli
experimentalProtocol: Antimicrobial activity against Escherichia coli ATCC 11775 incubated for 24 hrs followed by transfer of colonies to Muller-Hinton agar plate and measured after 18 hrs by two-fold serial broth dilution method
Format: functional
Give MBC for every item shown.
Numbers only, in µg/mL.

### Prompt Return reported MBC. Input compound: `O=[N+]([O-])c1ccc(-c2nnc3c(Cc4ccccc4)nc4ccccc4n23)cc1`
### Response 100

Please supply MBC for each of the following items, keeping them in order.
1. Cc1nnc2c(Cc3ccccc3)nc3ccccc3n12
2. c1ccc(Cc2nc3ccccc3n3cnnc23)cc1
3. CCOC(=O)C/C(C)=N\Nc1nc2ccccc2nc1Cc1ccccc1
4. O=c1[nH]nc2c(Cc3ccccc3)nc3ccccc3n12
5. Brc1ccc(C2=NN=C3C(Cc4ccccc4)=Nc4ccccc4N3C2)cc1
6. Nc1cc(-c2ccc(Cl)cc2)nn1-c1nc2ccccc2nc1Cc1ccccc1
7. Clc1ccccc1-c1nnc2c(Cc3ccccc3)nc3ccccc3n12

### Response
1. 50
2. 25
3. 100
4. 100
5. 50
6. 100
7. 50

----------
Test system: Pseudomonas aeruginosa
experimentalProtocol: Antimicrobial activity against Pseudomonas aeruginosa ATCC 10145 incubated for 24 hrs by two-fold serial broth dilution method
Format: functional
setupConditions: ATCC 10145, 24 h
assayEndpoint: MIC (µg/mL)
One number for each entry, in µg/mL.

Worked cases, answers included:
### Prompt Return MIC (reported value) for this compound: `CCOC(=O)Cc1nnc2c(Cc3ccccc3)nc3ccccc3n12`
### Response 100

### Prompt Input `CC1(C)S[C@@H]2[C@H](NC(=O)[C@H](N)c3ccccc3)C(=O)N2[C@H]1C(=O)O` , output reported MIC.
### Response 50

### Prompt Identify MIC associated with the compound `CCOC(=O)c1nnc2c(Cc3ccccc3)nc3ccccc3n12`
### Response 100

Provide the reported MIC of each entry below, same order.
1. Nc1cc(-c2ccc(Cl)cc2)nn1-c1nc2ccccc2nc1Cc1ccccc1
2. Clc1ccccc1-c1nnc2c(Cc3ccccc3)nc3ccccc3n12

### Response
1. 50
2. 50

Hi! Can you tell me MIC for each of these compounds?
1. O=C(O)CCc1nnc2c(Cc3ccccc3)nc3ccccc3n12
2. Brc1ccc(C2=NN=C3C(Cc4ccccc4)=Nc4ccccc4N3C2)cc1
3. c1ccc(Cc2nc3ccccc3n3cnnc23)cc1
4. CCOC(=O)C/C(C)=N\Nc1nc2ccccc2nc1Cc1ccccc1
5. O=C(O)c1ccccc1-c1nnc2c(Cc3ccccc3)nc3ccccc3n12
6. Cc1nnc2c(Cc3ccccc3)nc3ccccc3n12
7. O=c1[nH]nc2c(Cc3ccccc3)nc3ccccc3n12

### Response
1: 25; 2: 100; 3: 50; 4: 100; 5: 100; 6: 100; 7: 100

### Prompt Let me know recorded MIC for `O=[N+]([O-])c1ccc(-c2nnc3c(Cc4ccccc4)nc4ccccc4n23)cc1` , thanks.
### Response 50

----------
Could you please report measured inhibition zone (IZ) for the items listed next?
System: Bacillus subtilis
experimentalProtocol: Antimicrobial activity against Bacillus subtilis ATCC 6633 incubated at 37 degC for 24 hrs by cup diffusion method; further: test concentration or dose not given here
Type: functional
Give bare numbers, in mm.

### Prompt Fetch value of inhibition zone (IZ) on Bacillus subtilis for `CCOC(=O)Cc1nnc2c(Cc3ccccc3)nc3ccccc3n12` .
### Response 14

### Prompt Report value only: inhibition zone (IZ), Bacillus subtilis, `c1ccc(Cc2nc3ccccc3n3cnnc23)cc1`
### Response 12

### Prompt Provide inhibition zone (IZ), tested on Bacillus subtilis, for `CCOC(=O)c1nnc2c(Cc3ccccc3)nc3ccccc3n12` .
### Response 13

### Prompt Report inhibition zone (IZ) on Bacillus subtilis for this entry: `Cc1nnc2c(Cc3ccccc3)nc3ccccc3n12`
### Response 13

### Prompt Give the observed inhibition zone (IZ) of `CCOC(=O)C/C(C)=N\Nc1nc2ccccc2nc1Cc1ccccc1` for Bacillus subtilis.
### Response 12

Need inhibition zone (IZ) for each of these compounds.
1. Brc1ccc(C2=NN=C3C(Cc4ccccc4)=Nc4ccccc4N3C2)cc1
2. Clc1ccccc1-c1nnc2c(Cc3ccccc3)nc3ccccc3n12
3. Nc1cc(-c2ccc(Cl)cc2)nn1-c1nc2ccccc2nc1Cc1ccccc1
4. O=c1[nH]nc2c(Cc3ccccc3)nc3ccccc3n12

### Response
[12, 12, 15, 16]

----------
Test system: Pseudomonas aeruginosa
experimentalProtocol: Antimicrobial activity against Pseudomonas aeruginosa ATCC 10145 incubated for 24 hrs followed by transfer of colonies to Muller-Hinton agar plate and measured after 18 hrs by two-fold serial broth dilution method
Assay type: functional
assayEndpoint: MBC (µg/mL)
Give bare numbers, in µg/mL.

Take each entry in turn and give its MBC.
1. CCOC(=O)c1nnc2c(Cc3ccccc3)nc3ccccc3n12
2. CCOC(=O)Cc1nnc2c(Cc3ccccc3)nc3ccccc3n12
3. O=[N+]([O-])c1ccc(-c2nnc3c(Cc4ccccc4)nc4ccccc4n23)cc1
4. O=c1[nH]nc2c(Cc3ccccc3)nc3ccccc3n12
5. O=C(O)c1ccccc1-c1nnc2c(Cc3ccccc3)nc3ccccc3n12
6. Brc1ccc(C2=NN=C3C(Cc4ccccc4)=Nc4ccccc4N3C2)cc1

### Response
100
100
50
100
100
100

----------
Test system: Pseudomonas aeruginosa
experimentalProtocol: Antimicrobial activity against Pseudomonas aeruginosa ATCC 10145 incubated for 24 hrs followed by transfer of colonies to Muller-Hinton agar plate and measured after 18 hrs by two-fold serial broth dilution method
Format: functional
assayEndpoint: MBC (µg/mL)
Give bare numbers, in µg/mL.

Example compounds with recorded MBC:
### Prompt Please give the documented MBC of `Nc1cc(-c2ccc(Cl)cc2)nn1-c1nc2ccccc2nc1Cc1ccccc1`
### Response 50

### Prompt Using known records, supply MBC for `Cc1nnc2c(Cc3ccccc3)nc3ccccc3n12`
### Response 100

### Prompt Entry `Clc1ccccc1-c1nnc2c(Cc3ccccc3)nc3ccccc3n12` needs its MBC filled in; supply it.
### Response 100

Dear colleague, could you please provide MBC for the compounds listed below?
1. O=C(O)CCc1nnc2c(Cc3ccccc3)nc3ccccc3n12
2. CCOC(=O)C/C(C)=N\Nc1nc2ccccc2nc1Cc1ccccc1
3. c1ccc(Cc2nc3ccccc3n3cnnc23)cc1

### Response
[25, 100, 100]

----------
System: Escherichia coli
experimentalProtocol: Antimicrobial activity against Escherichia coli ATCC 11775 incubated at 37 degC for 24 hrs by cup diffusion method; further: test concentration or dose not given here
Format: functional
assayEndpoint: inhibition zone (IZ) (mm)
Give bare numbers, in mm.

Before answering, review these 3 worked examples.
### Prompt Output inhibition zone (IZ) of `c1ccc(Cc2nc3ccccc3n3cnnc23)cc1`
### Response 12

### Prompt Supply inhibition zone (IZ) value. Item: `Clc1ccccc1-c1nnc2c(Cc3ccccc3)nc3ccccc3n12`
### Response 10

### Prompt Report inhibition zone (IZ), nothing else, for this molecule: `O=C(O)c1ccccc1-c1nnc2c(Cc3ccccc3)nc3ccccc3n12`
### Response 15

# per-item lookup of inhibition zone (IZ); items listed below
1. O=C(O)CCc1nnc2c(Cc3ccccc3)nc3ccccc3n12
2. Brc1ccc(C2=NN=C3C(Cc4ccccc4)=Nc4ccccc4N3C2)cc1
3. CCOC(=O)Cc1nnc2c(Cc3ccccc3)nc3ccccc3n12
4. Cc1nnc2c(Cc3ccccc3)nc3ccccc3n12
5. O=c1[nH]nc2c(Cc3ccccc3)nc3ccccc3n12
6. CCOC(=O)C/C(C)=N\Nc1nc2ccccc2nc1Cc1ccccc1

### Response
15
14
15
12
10
14

Dear reader, for each entry below, please note its inhibition zone (IZ).
1. O=[N+]([O-])c1ccc(-c2nnc3c(Cc4ccccc4)nc4ccccc4n23)cc1
2. Nc1cc(-c2ccc(Cl)cc2)nn1-c1nc2ccccc2nc1Cc1ccccc1
3. CCOC(=O)c1nnc2c(Cc3ccccc3)nc3ccccc3n12

### Response
14
16
12

----------
System: Staphylococcus aureus
experimentalProtocol: Antimicrobial activity against Staphylococcus aureus DSM 1104 incubated for 24 hrs followed by transfer of colonies to Muller-Hinton agar plate and measured after 18 hrs by two-fold serial broth dilution method
Type: functional
assayEndpoint: MBC (µg/mL)
Numbers only, in µg/mL.

### Prompt Using known records, supply MBC for `CCOC(=O)Cc1nnc2c(Cc3ccccc3)nc3ccccc3n12`
### Response 100

Quick batch: MBC for everything below.
1. O=c1[nH]nc2c(Cc3ccccc3)nc3ccccc3n12
2. CCOC(=O)c1nnc2c(Cc3ccccc3)nc3ccccc3n12
3. Cc1nnc2c(Cc3ccccc3)nc3ccccc3n12
4. O=C(O)CCc1nnc2c(Cc3ccccc3)nc3ccccc3n12
5. O=C(O)c1ccccc1-c1nnc2c(Cc3ccccc3)nc3ccccc3n12

### Response
[200, 50, 100, 50, 200]

Record MBC per entry; entries follow.
1. c1ccc(Cc2nc3ccccc3n3cnnc23)cc1
2. Nc1cc(-c2ccc(Cl)cc2)nn1-c1nc2ccccc2nc1Cc1ccccc1

### Response
1: 100; 2: 100

Hey, can you go through the list below and give me MBC for every item?
1. CCOC(=O)C/C(C)=N\Nc1nc2ccccc2nc1Cc1ccccc1
2. O=[N+]([O-])c1ccc(-c2nnc3c(Cc4ccccc4)nc4ccccc4n23)cc1
3. Brc1ccc(C2=NN=C3C(Cc4ccccc4)=Nc4ccccc4N3C2)cc1
4. Clc1ccccc1-c1nnc2c(Cc3ccccc3)nc3ccccc3n12

### Response
[100, 100, 50, 200]
